Where do these numbers come from? They come from patent US7544666B2.

# TEST_PROTOCOL: Stability in Hanks' balanced salt solution (HBSS)
# Format: physicochemical
# RUN_PARAMETERS: 37° C., relative to initial conc. in HBSS = 100.00
MEASURE_NAME: Conc. after 4-hour in HBSS

CC[C@H](C)[C@H](NC(=O)[C@H](CO)NC(=O)[C@@H](NC(=O)[C@@H]1CCCN1C(=O)[C@H](C)NC(=O)[C@H](CC(N)=O)NC(=O)OCC1c2ccccc2-c2ccccc21)C(C)C)C(=O)N1CCC[C@H]1C(=O)N[C@@H](CCC(N)=O)C(N)=O; 100.00
CC[C@H](C)[C@H](NC(=O)[C@H](CO)NC(=O)[C@@H](NC(=O)[C@@H]1CCCN1C(=O)[C@H](C)NC(=O)[C@H](CC(N)=O)NC(=O)OCc1ccccc1)C(C)C)C(=O)N1CCC[C@H]1C(=O)N[C@@H](CCC(N)=O)C(N)=O; 98.58
CC[C@H](C)[C@H](NC(=O)[C@H](CO)NC(=O)[C@@H](NC(=O)[C@@H]1CCCN1C(=O)[C@H](C)NC(=O)[C@H](CC(N)=O)NC(=O)OCc1ccccc1)C(C)C)C(=O)N1CCC[C@H]1C(=O)N[C@@H](CCC(N)=O)C(=O)O; 100.00
CC[C@H](C)[C@H](NC(=O)[C@H](CO)NC(=O)[C@@H](NC(=O)[C@@H]1CCCN1C(=O)[C@H](C)NC(=O)[C@H](CC(N)=O)NC(=O)c1cccs1)C(C)C)C(=O)N1CCC[C@H]1C(=O)N[C@@H](CCC(N)=O)C(N)=O; 98.62
CC[C@H](C)[C@H](NC(=O)[C@H](CO)NC(=O)[C@@H](NC(=O)[C@@H]1CCCN1C(=O)[C@H](C)NC(=O)[C@H](CC(N)=O)NC(=O)c1ccccc1)C(C)C)C(=O)N1CCC[C@H]1C(=O)N[C@@H](CCC(N)=O)C(N)=O; 99.88
CCCCOC(=O)N[C@@H](CC(N)=O)C(=O)N[C@@H](C)C(=O)N1CCC[C@H]1C(=O)N[C@H](C(=O)N[C@@H](CO)C(=O)N[C@H](C(=O)N1CCC[C@H]1C(=O)N[C@@H](CCC(N)=O)C(N)=O)[C@@H](C)CC)C(C)C; 99.77
CC[C@H](C)[C@H](NC(=O)[C@H](CO)NC(=O)[C@@H](NC(=O)[C@@H]1CCCN1C(=O)[C@H](C)NC(=O)[C@H](CC(N)=O)NC(=O)c1cccc2ccccc12)C(C)C)C(=O)N1CCC[C@H]1C(=O)N[C@@H](CCC(N)=O)C(=O)O; 96.55

---

# TEST_PROTOCOL: Stability in Hanks' balanced salt solution (HBSS)
# Format: physicochemical
# RUN_PARAMETERS: 37° C., relative to initial conc. in HBSS = 100.00
MEASURE_NAME: Conc. after 4-hour in HBSS

CC[C@H](C)[C@H](NC(=O)[C@H](COP(=O)(O)O)NC(=O)[C@@H](NC(=O)[C@@H]1CCCN1C(=O)[C@H](C)NC(=O)[C@@H](N)CC(N)=O)C(C)C)C(=O)N1CCC[C@H]1C(=O)N[C@@H](CCC(N)=O)C(=O)O; 98.80
CCCCCCOC(=O)N[C@@H](CC(N)=O)C(=O)N[C@@H](C)C(=O)N1CCC[C@H]1C(=O)N[C@H](C(=O)N[C@@H](CO)C(=O)N[C@H](C(=O)N1CCC[C@H]1C(=O)N[C@@H](CCC(N)=O)C(N)=O)[C@@H](C)CC)C(C)C; 100.22
CC[C@H](C)[C@H](NC(=O)[C@H](CO)NC(=O)[C@@H](NC(=O)[C@@H]1CCCN1C(=O)[C@H](C)NC(=O)[C@H](CC(N)=O)NC(=O)c1cccc2ccccc12)C(C)C)C(=O)N1CCC[C@H]1C(=O)N[C@@H](CCC(N)=O)C(N)=O; 100.00
CC[C@H](C)[C@@H]1NC(=O)[C@H](CO)NC(=O)[C@H](C(C)C)NC(=O)[C@@H]2CCCN2C(=O)[C@H](C)NC(=O)[C@H](CC(N)=O)NC(=O)[C@H](CCC(N)=O)NC(=O)[C@@H]2CCCN2C1=O; 100.72
